Hi there, I'd appreciate the recorded OD450 nm for every entry that follows.
Biological target: T1, human GPC3-His protein (human, UniProt P51654 25-559)
T1 construct: Bought protein; also called human GPC3 protein; not shown: His tag
Assay: ELISA, coated human GPC3, antibody 100 nM;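 note: antibodies bound to antigen-coated 96-well plates (1 µg/mL), 2 h at 37 °C, detected with HRP-labelled secondary antibody and TMB substrate, absorbance read at 450 nm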
The reply should read as a number followed by its unit.

Sample records with OD450 nm:
# Binder, OD450 nm
rows = [
    ("F1.120.16 human-murine chimeric antibody (antibody, human IgG1, kappa, V domains shown) VH: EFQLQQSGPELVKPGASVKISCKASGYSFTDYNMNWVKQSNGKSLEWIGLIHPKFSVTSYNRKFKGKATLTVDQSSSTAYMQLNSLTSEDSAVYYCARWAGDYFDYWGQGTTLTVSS VL: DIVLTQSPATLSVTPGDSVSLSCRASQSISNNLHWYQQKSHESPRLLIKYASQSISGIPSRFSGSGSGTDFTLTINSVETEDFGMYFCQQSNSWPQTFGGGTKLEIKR", "1.62 OD450"),
    ("F4.18.4 human-murine chimeric antibody (antibody, human IgG1, kappa, V domains shown) VH: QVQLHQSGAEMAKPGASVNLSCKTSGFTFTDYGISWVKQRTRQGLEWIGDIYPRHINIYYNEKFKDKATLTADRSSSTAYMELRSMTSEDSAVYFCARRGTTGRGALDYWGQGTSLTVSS VL: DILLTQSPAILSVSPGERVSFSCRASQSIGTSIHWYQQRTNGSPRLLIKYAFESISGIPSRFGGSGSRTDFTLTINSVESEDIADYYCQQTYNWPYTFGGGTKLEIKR", "1.02 OD450"),
]

Check the records and state OD450 nm for F1.41.17 human-murine chimeric antibody (antibody, human IgG1, kappa, V domains shown) VH: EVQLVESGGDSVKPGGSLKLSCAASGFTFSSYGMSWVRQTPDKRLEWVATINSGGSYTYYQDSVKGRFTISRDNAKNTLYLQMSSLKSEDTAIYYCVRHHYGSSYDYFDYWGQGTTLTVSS VL: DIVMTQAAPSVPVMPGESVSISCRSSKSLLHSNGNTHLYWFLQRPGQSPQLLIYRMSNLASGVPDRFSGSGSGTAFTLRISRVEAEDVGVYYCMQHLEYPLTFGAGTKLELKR
1.51 OD450

FYI, the data here is from patent US20260116991A1.
